recorded endpoint: melting point

Examples from the recorded data:
COc1ccc(/C=C/C(=O)c2cccc([N+](=O)[O-])c2)c(OC)c1 = 88.1 to 88.7 °C
O=C(/C=C/c1ccc(Oc2ccccc2)cc1)c1ccc(C2CCCCC2)cc1 = 160.9 to 161.1 °C
COc1cccc(C(=O)/C=C/c2ccc(OC)cc2OC)c1 = 75.6 to 78.9 °C
CCCCOc1ccccc1C(=O)/C=C/c1cc(OC)cc(OC)c1 = 69.5 to 70.1 °C
COc1cc(/C=C/C(=O)c2ccccc2N(C)C)cc(OC)c1 = 159.8 to 160.5 °C

Consider the compound shown here: `COc1cc(/C=C/C(=O)c2cccc(N(C)C)c2)cc(OC)c1` What is its recorded melting point?
81.8 to 82.6 °C

Endpoint output: melting point of `COc1ccc(C(=O)/C=C/c2cccc(N(C)C)c2)c(OC)c1OC` . Value?
87.2 to 87.9 °C

====

Test system: Leishmania promastigotes
Test: Leishmania promastigotes Assay
Assay type: cell-based
Settings: promastigotes, 3H-thymidine uptake; read-out: Leishmania IC50 ± SD
Protocol: A WHO reference vaccine strain of L. major originally isolated from a patient in Iran and a Kenyan strain of L. donovani (MHOM(/KE/85/NLB 274) were cultured in medium 199 containing 0.02 mg/ml gentamycin, 25 mM Hepes, 4 mM L-glutamine, and 20% heat inactivated fetal calf serum (FCS). Incubation was carried out at 26° C. Promastigotes were harvested on day 3 and 6 of the culture and used for the parasite growth inhibition. […]
recorded endpoint: pIC50
# pIC50: negative log10 of molar concentration; output just the value

C=CCOc1ccccc1C(=O)/C=C/c1ccc(OC)cc1OC = 5.30
CCCCCCOc1ccc(C(=O)/C=C/c2ccccc2)cc1 = 4.21
C=CCOc1ccc(C(=O)/C=C/c2cccc(OC)c2OC)cc1 = 4.31
CCCCCCOc1ccc(C(=O)/C=C/c2ccc(OC)cc2OC)cc1 = 3.87

Field request: pIC50 | item: `C=CC(C)(C)c1cc(/C=C/C(=O)c2ccc(O)cc2)c(OC)cc1O`
4.89

====

system: Parainfluenza-3 Virus; experiment: Antiviral activity in Vero cell cultures; format: cell-based; details: Vero cells; values given as fractions
recorded endpoint: Minimum inhibitory concentration, Parainfluenza-3 Virus

A selection of reference data follows.
C=CCOc1ccc(C(=O)/C=C/c2cc(OC)cc(OC)c2)cc1 [SBC-35ma, 3,5-dimethoxy-4′-allyloxychalcone] = <1/100
C=CCOc1ccc(C(=O)/C=C/c2cccc(OC)c2OC)cc1 [2,3m4′ac] = <1/100
C=CCOc1ccc(C(=O)/C=C/c2c(OC)cc(OC)cc2OC)cc1 [2,4,6m4′ac] = 1/2000

# value lookup — system Parainfluenza-3 Virus, readout Minimum inhibitory concentration, Parainfluenza-3 Virus, item C=CCOc1ccc(C(=O)/C=C/c2cc(OC)c(OC)c(OC)c2)cc1 [3,4,5m4′ac]
1/2000

Return Minimum inhibitory concentration, Parainfluenza-3 Virus measured with Parainfluenza-3 Virus given this compound: C=CCOc1ccc(C(=O)/C=C/c2cc(OC)c(OC)cc2OC)cc1 [2,4,5m4′ac]
1/2000

====

tested on: Leishmania promastigotes; experiment: Leishmania promastigotes Assay; type: cell-based; conditions: promastigotes, 3H-thymidine uptake; read-out: Leishmania IC50 ± SD
Threshold 20 µM: IC50 strictly smaller gives yes (1), otherwise no (0).

COc1ccc(/C=C/C(=O)c2ccc(F)cc2F)c(OC)c1 [2′,4′-F-2,4-OCH3] = no (0)

Lab log: compare recorded IC50 with 20 µM; is it strictly lower for COc1cccc(OC)c1/C=C/C(=O)c1ccc(O)cc1 [2,6-OCH3-4′-OH] ?
no (0)

Lab note: IC50 threshold 20 µM. Does this molecule come in strictly under it? C=CCOc1ccc(C(=O)/C=C/c2cc(OCC=C)ccc2OCC=C)cc1 [2,5,4′-allyloxy]
no (0)

Dear reviewer, please state whether COc1cc(/C=C/C(=O)c2ccc(O)cc2O)ccc1O [2′,4′,4-OH-3-OCH3] has IC50 strictly beneath 20 µM.
yes (1)

# check: IC50 < 20 µM for COc1ccc(OC)c(C(=O)/C=C/c2ccc(Cl)cc2Cl)c1 [2′,5′-OCH3-2,4-Cl]
yes (1)

====

Known IC50 of a selection of compounds
System: Leishmania promastigotes
Assay: Leishmania promastigotes Assay
Format: cell-based
Conditions: promastigotes, 3H-thymidine uptake; read-out: Leishmania IC50 ± SD
Procedure: A WHO reference vaccine strain of L. major originally isolated from a patient in Iran and a Kenyan strain of L. donovani (MHOM(/KE/85/NLB 274) were cultured in medium 199 containing 0.02 mg/ml gentamycin, 25 mM Hepes, 4 mM L-glutamine, and 20% heat inactivated fetal calf serum (FCS). Incubation was carried out at 26° C. Promastigotes were harvested on day 3 and 6 of the culture and used for the parasite growth inhibition. […]
A complete answer gives the number followed by the unit.

COc1ccc(/C=C/C(=O)c2ccccc2)c(OC)c1 [2,4-OCH3] = 15 µM
COc1ccc(/C=C/C(=O)c2cccc(Br)c2)c(OC)c1 [3′-Br-2,4-OCH3] = 16 µM
COc1ccc(/C=C/C(=O)c2ccccc2O)c(OC)c1 [2,4-OCH3-2′-OH] = 35 µM
COc1cc(OC)c(/C=C/C(=O)c2ccc(O)cc2)c(OC)c1 [2,4,6-OCH3-4′-OH] = 106 µM
COc1cc(OC)c(OC)cc1/C=C/C(=O)c1ccc(O)cc1 [2,4,5,-OCH3-4′-OH] = 16 µM
COc1ccc(/C=C/C(=O)c2ccc(OC)cc2)cc1 [4′,4-OCH3] = 106 µM
COc1ccc(C(=O)/C=C/c2ccc(Cl)cc2Cl)c(OC)c1OC [2′,3′,4′-OCH3-2,4-Cl] = 6.3 µM
COc1ccc(/C=C/C(=O)c2ccccc2OC)c(OC)c1 [2,4,2′-OCH3] = 16 µM

Field: next compound
GET /values?readout=IC50&item= CCCCOc1ccc(C(=O)/C=C/c2cc(OC)cc(OC)c2)cc1 [3,5-OCH3-4′-OC4H9]
35 µM

====

# maps each entry to its melting point

Some solved cases for reference:
COc1cc(/C=C/C(=O)c2ccccc2[N+](=O)[O-])cc(OC)c1 [2′-NO2-3,5-OCH3, 3,5-dimethoxy-2′-nitrochalcone] = 98.4 to 98.9 °C
COc1cc(/C=C/C(=O)c2ccc(C3CCCCC3)cc2)cc(OC)c1 [PH104, 3,5-dimethoxy-4′-cyclohexylchalcone] = 75.5 to 76.2 °C
COc1cc(/C=C/C(=O)c2ccccc2O)cc(OC)c1 [2′-OH-3,5-OCH3, 3,5-dimethoxy-2′-hydroxychalcone] = 110.2 to 110.9 °C

Recorded melting point for COc1ccc(C(=O)/C=C/c2ccccc2O)c(OC)c1OC [2-OH-2′,3′,4′,-OCH3, 2-hydroxy-2′,3′,4′-trimethoxychalcone] , please?
122.6 to 123 °C

====

experiment: Preliminary 14 days oral toxicity study in rats; type: in vivo; conditions: highest dose level 1000 mg/kg/day
recorded endpoint: toxic effects

C=CCOc1ccc(C(=O)/C=C/c2ccc(OC)cc2OC)cc1 = No toxic effects
C=CC(C)(C)c1cc(/C=C/C(=O)c2ccc(O)cc2)c(OC)cc1O = No toxic effects
COc1ccc(/C=C/C(=O)c2ccc(O)cc2)c(OC)c1 [24m4′hc, 2,4-dimethoxy-4′hydroxychalcone] = No toxic effects
C=CCOc1ccc(C(=O)/C=C/c2cc(OC)cc(OC)c2)cc1 [SBC-35ma, 3,5-dimethoxy-4′-allyloxychalcone] = No toxic effects

Look at this compound and give its reported toxic effects. `C=CCOc1ccc(C(=O)/C=C/c2ccc(OC)c(OC)c2)cc1`
No toxic effects
